# experimental_system: EGFR (C797S L858R) (Homo sapiens, UniProt P00533, C797S/L858R)
# Construct: purchased signalchem
# Sequence (P00533 25-1210 C797S/L858R): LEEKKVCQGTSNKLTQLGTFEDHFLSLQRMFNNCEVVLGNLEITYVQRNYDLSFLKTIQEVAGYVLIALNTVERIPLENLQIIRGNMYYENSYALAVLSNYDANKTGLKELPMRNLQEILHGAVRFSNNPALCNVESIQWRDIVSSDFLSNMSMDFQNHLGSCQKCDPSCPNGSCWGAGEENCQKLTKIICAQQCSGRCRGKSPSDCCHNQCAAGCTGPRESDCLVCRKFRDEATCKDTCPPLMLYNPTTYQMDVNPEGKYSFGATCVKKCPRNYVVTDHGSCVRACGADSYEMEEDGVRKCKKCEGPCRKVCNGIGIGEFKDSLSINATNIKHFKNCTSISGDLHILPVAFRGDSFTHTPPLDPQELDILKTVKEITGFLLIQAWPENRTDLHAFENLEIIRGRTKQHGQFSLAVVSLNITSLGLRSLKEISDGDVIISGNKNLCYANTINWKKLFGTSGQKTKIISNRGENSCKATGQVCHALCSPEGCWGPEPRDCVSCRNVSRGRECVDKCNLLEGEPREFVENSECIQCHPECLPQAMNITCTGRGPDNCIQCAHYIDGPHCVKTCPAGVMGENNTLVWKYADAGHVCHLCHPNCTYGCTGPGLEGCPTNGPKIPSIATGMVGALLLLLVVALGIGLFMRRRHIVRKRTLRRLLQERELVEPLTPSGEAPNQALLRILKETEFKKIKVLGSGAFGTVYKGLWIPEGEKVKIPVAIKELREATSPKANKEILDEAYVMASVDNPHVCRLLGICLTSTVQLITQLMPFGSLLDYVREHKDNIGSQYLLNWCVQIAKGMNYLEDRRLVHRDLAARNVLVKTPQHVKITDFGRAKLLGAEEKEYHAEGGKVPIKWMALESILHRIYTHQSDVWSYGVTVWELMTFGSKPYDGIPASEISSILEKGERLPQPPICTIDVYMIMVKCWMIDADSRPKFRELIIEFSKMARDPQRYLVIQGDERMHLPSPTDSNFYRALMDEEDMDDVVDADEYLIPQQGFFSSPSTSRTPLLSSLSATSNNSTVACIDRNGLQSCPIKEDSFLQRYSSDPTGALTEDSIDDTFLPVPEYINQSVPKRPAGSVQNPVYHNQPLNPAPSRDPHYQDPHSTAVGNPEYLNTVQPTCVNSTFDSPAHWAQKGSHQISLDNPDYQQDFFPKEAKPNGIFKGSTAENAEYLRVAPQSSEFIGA
# run_description: Inhibition of EGFR (C797S L858R) biochemical enzymatic activity (HTRF)
# conditions: EGFR (C797S L858R), 1 mM ATP, 1 h at room temperature, read-out: IC50 @L858-C797S
pIC50: −log10 of the molar value.
measured_property: pIC50

Recorded pIC50, per entry:
INSERT INTO measurements (compound, value) VALUES
  ('Cc1cc2cc(n1)-c1cnn(C)c1OCCN1CC3CCC(C3)(C1)n1c(nc3ccc(N(C)CCN(C)C)cc31)NC2=O (single isomer, unassigned) [Example B47B]', 7.85),
  ('Cc1cc2cc(n1)-c1cnn(C)c1OCCC[C@@H](C)Cn1c(nc3ccc4c(c31)CCN(CCN(C)C)C4)NC2=O', 7.96),
  ('Cc1cc2cc(n1)-c1cnn(C)c1OCCN1CC3CCC(CC3)(C1)n1c(nc3ccc(N4CC[C@@H](N(C)C)C4)cc31)NC2=O', 6.69),
  ('Cc1cc2cc(n1)-c1cnn(C)c1OCCN1CC3CCC(C3)(C1)n1c(nc3ccc(N4CCC(N5CCOCC5)C4)cc31)NC2=O (single isomer, unassigned) [Example B44B2]', 7.18),
  ('Cc1cc2cc(n1)-c1cnn(C)c1OCCN1CC3CCC(C3)(C1)n1c(nc3ccc(N4CCC5(CCN(C)C5)CC4)cc31)NC2=O (single isomer, unassigned) [Example B52B]', 8.49),
  ('Cc1cc2cc(n1)-c1cnn(C)c1OCCN1CC3CCC(C3)(C1)n1c(nc3ccc(N4CCC(N5CCOCC5)C4)cc31)NC2=O (single isomer, unassigned) [Example B44B]', 7.30),
  ('Cc1cc2cc(n1)-c1cnn(C)c1OCCN1CC3CCC(CC3)(C1)n1c(nc3ccc(N4CCC5(CC4)CCN5C)cc31)NC2=O', 7.19);

a: Cc1cc2cc(n1)-c1cnn(C)c1OCCN1CC3CCC(CC3)(C1)n1c(nc3ccc(N4CC5CCN(C)C5C4)cc31)NC2=O (stereo not drawn)
b: Cc1cc2cc(n1)-c1cnn(C)c1OCCN1CC3CCC(CC3)(C1)n1c(nc3ccc(N4CCC5(CCN(C)CC5)C4)cc31)NC2=O [Example B31]
Task item: Compare a and b by numeric pIC50 and name the larger one. // caller expects the label of the chosen entry
Reply: b
(b: 6.95, a: 6.73)

---

# experimental_system: EGFR[T790M/C797S/d746-750] (Homo sapiens, UniProt P00533, C797S/DEL746-750/T790M)
# Construct: purchased Carna Bio
# Sequence (P00533 with tags, fused parts or gaps DEL746-750/T790M/C797S limits assumed): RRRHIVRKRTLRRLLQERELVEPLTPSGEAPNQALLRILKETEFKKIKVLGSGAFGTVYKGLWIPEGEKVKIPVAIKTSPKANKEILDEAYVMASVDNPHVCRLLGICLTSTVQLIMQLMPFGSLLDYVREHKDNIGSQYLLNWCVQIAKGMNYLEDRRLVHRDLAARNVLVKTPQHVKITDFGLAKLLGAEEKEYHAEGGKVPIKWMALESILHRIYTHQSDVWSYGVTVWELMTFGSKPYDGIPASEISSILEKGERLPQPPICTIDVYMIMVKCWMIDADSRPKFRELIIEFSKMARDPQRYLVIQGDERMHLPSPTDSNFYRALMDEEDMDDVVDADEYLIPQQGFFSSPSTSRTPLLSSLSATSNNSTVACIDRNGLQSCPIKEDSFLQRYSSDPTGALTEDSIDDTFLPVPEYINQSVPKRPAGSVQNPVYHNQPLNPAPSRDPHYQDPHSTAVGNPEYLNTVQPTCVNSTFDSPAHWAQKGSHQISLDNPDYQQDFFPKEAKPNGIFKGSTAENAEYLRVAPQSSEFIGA
# run_description: Inhibition of EGFR[T790M/C797S/d746-750] biochemical enzymatic activity (HTRF)
# conditions: IC50 @T790M - C797S - Del19, EGFR[T790M/C797S/d746-750], 1 mM ATP, 1 h at room temperature
pIC50: −log10 of the molar value.
measured_property: pIC50

INSERT INTO measurements (compound, value) VALUES
  ('Cc1cc2cc(n1)-c1cnn(C)c1OCCCCCn1c(nc3ccc4c(c31)CCN(CCN(C)C)C4)NC2=O', 8.60),
  ('Cc1cc2cc(n1)-c1cnn(C)c1OCCN1CC3CCC(CC3)(C1)n1c(nc3ccc(N4CCC(N(C)C)CC4)cc31)NC2=O', 8.51);

I: Cc1cc2cc(n1)-c1cnn(C)c1OCCN1CC3CCC(C3)(C1)n1c(nc3ccc(N4CCC(N(C)C)CC4)cc31)NC2=O (single isomer, unassigned) [Example B40B]
II: Cc1cc2cc(n1)-c1cnn(C)c1OCCN1CC3CCC(C3)(C1)n1c(nc3ccc(N4CCC(N(C)C)CC4)cc31)NC2=O (single isomer, unassigned) [Example B40A]
Task item: For the pair I and II , which entry has the numerically smaller recorded pIC50? // caller expects the label of the chosen entry
Reply: II
